Data credit: patent US20250144125A1

- Test system: Vero cells
PARAMETER MEASURED: CC50 (µM)
Your answer is read as µM, so omit the unit and give the number.

Inquiry: Lookup: CC50 / Vero cells / OC[C@H]1O[C@@H](n2ccc3c(C#CC4CCCC4)ncnc32)[C@H](O)[C@@H]1O
Reply text: 34

* * *

Quick list: CC50 per entry.
- System: Vero cells
- SETTINGS: African green monkey
Your answer is read as µM, so omit the unit and give the number.

{"COMPOUND": "CCc1ncnc2c1c(F)cn2[C@@H]1O[C@H](CO)[C@@H](O)[C@H]1O [3.1r]", "CC50 / µM": 59}
{"COMPOUND": "C=C(OCC)c1ncnc2c1ccn2[C@@H]1O[C@H](CO)[C@@H](O)[C@H]1O [3.1b]", "CC50 / µM": 99}
{"COMPOUND": "OC[C@H]1O[C@@H](n2ccc3c(C#Cc4ccc(F)cc4)ncnc32)[C@H](O)[C@@H]1O [3.1h]", "CC50 / µM": 23}
{"COMPOUND": "CC#Cc1ncnc2c1ccn2[C@@H]1O[C@H](CO)[C@@H](O)[C@H]1O [3.1d]", "CC50 / µM": 4.2}
{"COMPOUND": "OC[C@H]1O[C@@H](n2ccc3c(C#Cc4cccc(F)c4)ncnc32)[C@H](O)[C@@H]1O [3.1i]", "CC50 / µM": 11}
{"COMPOUND": "OC[C@H]1O[C@@H](n2ccc3c(C#Cc4ccc(Cl)cc4)ncnc32)[C@H](O)[C@@H]1O [3.1j]", "CC50 / µM": 6.5}
{"COMPOUND": "CCCC#Cc1ncnc2c1ccn2[C@@H]1O[C@H](CO)[C@@H](O)[C@H]1O [3.1f]", "CC50 / µM": 9.9}

Inquiry: Fill in: CC50 of CC(C)C#Cc1ncnc2c1ccn2[C@@H]1O[C@H](CO)[C@@H](O)[C@H]1O [3.1e] is ___
Reply text: 7.3
